Origin of the recorded values: the supplement of paper PMC11061612

Measured Bliss excess, listed per entry for reference.
System: ETK-1 (Biliary Tract Carcinoma);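 further: after 72 h of two-drug dosing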
assay_protocol: Bliss excess, mean over the matrix (fraction); higher = more synergy
Give a plain numeric answer without units written out.

Recorded Bliss excess, per entry:
COc1nnc2ccc(N3CCC(c4ccc(OCCN5CCN(C)C(=O)[C@H]5C)cc4)CC3)nn12 [AZD5153] + C[C@@H]1COCCN1C2=NC(=NC(=C2)C3(CC3)[S@](=N)(=O)C)C4=C5C=CNC5=NC=C4 [AZD6738] (first compound max 1 µM, 7x7, partner max 10 µM): 0.0107
C=CCn1c(=O)c2cnc(Nc3ccc(N4CCN(C)CC4)cc3)nc2n1-c1cccc(C(C)(C)O)n1 [AZD1775] + C1CN(CCC1(C(=O)N[C@@H](CCO)C2=CC=C(C=C2)Cl)N)C3=NC=NC4=C3C=CN4 [Capivasertib] (first compound max 3 µM, partner max 3 µM): -0.107
Cc1c2c(nn1C)CSCc1cc(n(C)n1)CSc1cc(c3ccccc3c1)OCCCc1c(C(=O)O)n(C)c3c-2c(Cl)ccc13 [AZD5991] + CC1(C)CCC(CN2CCN(c3ccc(C(=O)NS(=O)(=O)c4ccc(NCC5CCOCC5)c([N+](=O)[O-])c4)c(Oc4cnc5[nH]ccc5c4)c3)CC2)=C(c2ccc(Cl)cc2)C1 [Venetoclax] (first compound max 1 µM, 7x7, partner max 1 µM): -0.0526

Report Bliss excess, nothing else, for this compound: CC1(C)CCC(CN2CCN(c3ccc(C(=O)NS(=O)(=O)c4ccc(NCC5CCOCC5)c([N+](=O)[O-])c4)c(Oc4cnc5[nH]ccc5c4)c3)CC2)=C(c2ccc(Cl)cc2)C1 [Venetoclax] + Cn1cnc2c(F)c(Nc3ccc(Br)cc3Cl)c(C(=O)NOCCO)cc21 [Selumetinib] (first compound max 1 µM, 7x7, partner max 3 µM) -0.0333

Report Bliss excess, nothing else, for this compound: CC1(C)CCC(CN2CCN(c3ccc(C(=O)NS(=O)(=O)c4ccc(NCC5CCOCC5)c([N+](=O)[O-])c4)c(Oc4cnc5[nH]ccc5c4)c3)CC2)=C(c2ccc(Cl)cc2)C1 [Venetoclax] + CCN(CCO)CCCOc1ccc2c(Nc3cc(CC(=O)Nc4cccc(F)c4)[nH]n3)ncnc2c1 [AZD2811] (first compound max 1 µM, 7x7, partner max 1 µM) -0.0793

Report Bliss excess, nothing else, for this compound: Cc1cc2ncnn2cc1Nc1ncc2c(n1)n(C1CCOCC1)c(=O)n2C [AZD7648] + CCN(CCO)CCCOc1ccc2c(Nc3cc(CC(=O)Nc4cccc(F)c4)[nH]n3)ncnc2c1 [AZD2811] (first compound max 10 µM, 7x7, partner max 1 µM) -0.0025

====

Test system: EW-22 (Ewing's Sarcoma)
assay_protocol: combination Emax (second highest fraction inhibited in the dose matrix, 72 h); higher = more inhibition; extreme values may be limits of the assay
Measured combination Emax, listed per entry for reference.
Give a plain numeric answer without units written out.

Recorded combination Emax, per entry:
C=CCn1c(=O)c2cnc(Nc3ccc(N4CCN(C)CC4)cc3)nc2n1-c1cccc(C(C)(C)O)n1 [AZD1775] + O=C(c1cc(Cc2n[nH]c(=O)c3ccccc23)ccc1F)N1CCN(C(=O)C2CC2)CC1 [Olaparib] (first compound max 1 µM, partner max 10 µM): 0.894
CN(CCO)CC[C@H](CSc1ccccc1)Nc1ccc(S(=O)(=O)NC(=O)c2ccc(N3CCC([C@@H](O)c4ccccc4-c4ccc(Cl)cc4)CC3)cc2)cc1S(=O)(=O)C(F)(F)F [AZD4320] + Cc1cc2ncnn2cc1Nc1ncc2c(n1)n(C1CCOCC1)c(=O)n2C [AZD7648] (first compound max 1 µM, 7x7, partner max 10 µM): 0.905

Report combination Emax, nothing else, for this compound: C=CCn1c(=O)c2cnc(Nc3ccc(N4CCN(C)CC4)cc3)nc2n1-c1cccc(C(C)(C)O)n1 [AZD1775] + Nc1ccn([C@@H]2O[C@H](CO)[C@@H](O)C2(F)F)c(=O)n1 [Gemcitabine] (first compound max 1 µM, partner max 0.3 µM) 0.921
